System: human sera
procedure text: ELISA of human serum samples on 4 peptides (Example XI)
Assay type: binding
measurement context: human serum sample # 18
Entries and their measured ELISA 1:40 on 4 peptides Scale: 1+-3+ follow.
Returns: the value as a bare number; no unit string appended.

A selection of reference data follows.
{"columns": ["item sequence", "observed value"],
 "data": [
  ["AFPQFRSATLLL [Pep4]", 2.5],
  ["RYDVGGDHYYFTMD [Pep10]", 2],
  ["GYTFTDYSMH [Pep8]", 3]
]}

Specify measured ELISA 1:40 on 4 peptides Scale: 1+-3+ for HALMPATAVASL [Pep7] .
3

These data points were gathered from patent US8637040B2.
